Sourced from paper PMC6116703

Test system: human melanoma cell A375
protocolDetails: Cell proliferation (MTT) assay, A375
Type: cell-based
settings: Homo sapiens, A-375, 48 h, read-out: IC50 A375, antiproliferative, MTT, 48 h exposure
We label by threshold. Values of IC50 strictly beneath 10 µM are Condition met. Values of 10 µM and up are Condition not met.

See these solved cases before continuing.
> print(dat)
                                  molsmiles         labelvalue
1  Cc1ccc(S(=O)(=O)n2ccc3cc(/C=C/S(=O)(=O)F)ccc32)cc1      Condition met
2              O=Cc1ccc(/C=C/S(=O)(=O)F)cc1  Condition not met
3             COc1ccc(Cl)cc1/C=C/S(=O)(=O)F      Condition met
4           COc1cc(/C=C/S(=O)(=O)F)cc(OC)c1      Condition met
5                Cc1cccc(/C=C/S(=O)(=O)F)c1  Condition not met

Query compound follows.
Prompt: Is IC50 strictly under 10 µM for the entry O=S(=O)(F)/C=C/c1cccc(-c2ccccc2)c1 ?
Completion: Condition met
